Target: UniProtKB O14578
Sequence (O14578 whole entry, looked up): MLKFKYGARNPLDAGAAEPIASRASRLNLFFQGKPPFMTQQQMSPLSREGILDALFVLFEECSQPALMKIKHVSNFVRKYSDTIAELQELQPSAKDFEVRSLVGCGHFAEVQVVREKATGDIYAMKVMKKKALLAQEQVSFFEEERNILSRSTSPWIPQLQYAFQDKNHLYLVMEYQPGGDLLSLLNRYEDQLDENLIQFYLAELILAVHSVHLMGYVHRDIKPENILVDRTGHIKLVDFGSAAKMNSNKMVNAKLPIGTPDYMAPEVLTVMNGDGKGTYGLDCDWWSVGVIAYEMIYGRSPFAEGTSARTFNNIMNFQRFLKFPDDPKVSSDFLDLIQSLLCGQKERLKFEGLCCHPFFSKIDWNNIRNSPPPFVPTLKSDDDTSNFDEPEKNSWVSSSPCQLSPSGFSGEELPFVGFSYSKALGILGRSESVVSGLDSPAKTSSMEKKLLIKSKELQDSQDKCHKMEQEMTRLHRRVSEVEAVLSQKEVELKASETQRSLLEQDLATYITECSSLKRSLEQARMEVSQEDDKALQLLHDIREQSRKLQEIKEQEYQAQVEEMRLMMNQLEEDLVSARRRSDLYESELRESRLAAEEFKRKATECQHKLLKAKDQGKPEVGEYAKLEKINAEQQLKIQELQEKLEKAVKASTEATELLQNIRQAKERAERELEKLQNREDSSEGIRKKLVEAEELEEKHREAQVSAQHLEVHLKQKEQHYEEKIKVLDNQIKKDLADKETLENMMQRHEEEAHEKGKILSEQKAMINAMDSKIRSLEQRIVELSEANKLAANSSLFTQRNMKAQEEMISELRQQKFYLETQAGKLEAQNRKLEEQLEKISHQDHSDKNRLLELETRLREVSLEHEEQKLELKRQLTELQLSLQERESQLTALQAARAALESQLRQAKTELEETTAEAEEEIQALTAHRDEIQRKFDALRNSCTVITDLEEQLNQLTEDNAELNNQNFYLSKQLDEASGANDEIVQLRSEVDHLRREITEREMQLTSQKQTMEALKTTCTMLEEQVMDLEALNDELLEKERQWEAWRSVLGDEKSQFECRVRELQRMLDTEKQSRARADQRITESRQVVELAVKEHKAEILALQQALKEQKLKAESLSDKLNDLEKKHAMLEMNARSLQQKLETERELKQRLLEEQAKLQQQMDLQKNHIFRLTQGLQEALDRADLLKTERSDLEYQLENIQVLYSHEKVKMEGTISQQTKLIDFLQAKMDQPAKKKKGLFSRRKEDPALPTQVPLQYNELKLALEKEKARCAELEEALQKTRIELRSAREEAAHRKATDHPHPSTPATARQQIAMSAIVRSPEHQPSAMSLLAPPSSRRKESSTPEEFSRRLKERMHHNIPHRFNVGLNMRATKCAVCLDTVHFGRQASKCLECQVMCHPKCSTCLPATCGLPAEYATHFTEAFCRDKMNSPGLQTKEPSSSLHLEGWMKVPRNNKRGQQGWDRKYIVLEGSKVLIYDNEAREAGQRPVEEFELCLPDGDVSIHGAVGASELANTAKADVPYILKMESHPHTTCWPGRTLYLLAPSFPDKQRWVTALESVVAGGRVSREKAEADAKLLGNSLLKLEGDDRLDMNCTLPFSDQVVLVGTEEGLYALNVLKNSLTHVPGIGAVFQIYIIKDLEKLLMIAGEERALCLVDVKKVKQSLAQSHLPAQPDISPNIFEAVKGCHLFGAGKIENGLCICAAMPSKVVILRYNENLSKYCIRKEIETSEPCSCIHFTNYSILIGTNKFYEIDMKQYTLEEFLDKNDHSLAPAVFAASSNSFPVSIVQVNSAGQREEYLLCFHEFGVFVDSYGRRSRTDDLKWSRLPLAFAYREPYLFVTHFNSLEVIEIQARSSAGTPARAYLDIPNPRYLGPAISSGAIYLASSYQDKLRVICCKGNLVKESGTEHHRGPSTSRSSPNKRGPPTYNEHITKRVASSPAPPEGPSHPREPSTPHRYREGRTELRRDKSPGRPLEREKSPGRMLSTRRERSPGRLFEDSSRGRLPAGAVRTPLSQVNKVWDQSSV
Assay: KINOMEscan competition binding
Settings: compound 10.0 µM
I'd appreciate it if you could supply kinase still bound, per cent of control values for the items below.
Give the value, in units of %, as a plain number.

Could you share which kinase still bound, per cent of control value was measured for "COc1ccc(N(C(=O)Oc2cc(C(=O)Nc3cccc(C(F)(F)F)c3)ccc2C)c2ccnc(Nc3ccc(N4CCN(C)CC4)cc3)n2)c(OC)c1" ?
0.7

Try this compound next: "COc1cc(N2CCC(C(N)=O)CC2)ccc1Nc1nc(N)c(Cl)c(Nc2ccccc2S(=O)(=O)C(C)C)n1"
100

Try this compound next: "Cc1cn(-c2cc(C(=O)Nc3ccc(C)c(NC(=O)c4ccno4)c3)cc(C(F)(F)F)c2)cn1"
31

Try this compound next: "N#C/C(=C1/Nc2ccccc2S1)c1ccnc(NCCc2cccnc2)n1"
59

Try this compound next: "CCCS(=O)(=O)Nc1ccc(F)c(C(=O)c2c[nH]c3ncc(Cl)cc23)c1F"
66

Try this compound next: "COc1cc2c(Nc3ccc(NC(=O)c4ccccc4)cc3)ncnc2cc1OCCCN1CCOCC1"
59

Try this compound next: "COc1cc2ncnc(Nc3cccc(Cl)c3)c2cc1OC"
7.4

Try this compound next: "O=c1[nH]c2ccccc2n1C1CCN(Cc2ccc(-c3nc4cc5[nH]cnc5cc4nc3-c3ccccc3)cc2)CC1"
47

Try this compound next: "CCc1nc(-c2cccc(C)c2)c(-c2ccnc(NC(=O)c3ccccc3)c2)s1"
0.45

###

Target: RIPK1 (human) (UniProt Q13546)
Sequence (Q13546 whole entry, looked up): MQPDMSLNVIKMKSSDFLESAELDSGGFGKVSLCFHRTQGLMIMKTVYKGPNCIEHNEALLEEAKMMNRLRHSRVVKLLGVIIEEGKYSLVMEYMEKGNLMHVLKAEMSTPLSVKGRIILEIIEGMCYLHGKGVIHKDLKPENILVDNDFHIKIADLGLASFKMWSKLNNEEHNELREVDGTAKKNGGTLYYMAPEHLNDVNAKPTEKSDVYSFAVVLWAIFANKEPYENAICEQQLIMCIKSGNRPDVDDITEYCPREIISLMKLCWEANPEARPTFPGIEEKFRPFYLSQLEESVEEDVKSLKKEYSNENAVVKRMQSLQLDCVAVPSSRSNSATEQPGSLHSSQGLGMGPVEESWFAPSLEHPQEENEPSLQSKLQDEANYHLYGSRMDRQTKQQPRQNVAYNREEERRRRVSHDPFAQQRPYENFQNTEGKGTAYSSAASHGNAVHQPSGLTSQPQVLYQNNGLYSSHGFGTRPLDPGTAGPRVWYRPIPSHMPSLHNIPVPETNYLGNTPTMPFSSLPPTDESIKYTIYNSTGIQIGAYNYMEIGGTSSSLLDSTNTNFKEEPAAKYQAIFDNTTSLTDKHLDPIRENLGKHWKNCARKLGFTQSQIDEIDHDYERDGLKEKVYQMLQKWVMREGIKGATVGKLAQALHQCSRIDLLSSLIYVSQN
Test: KINOMEscan competition binding
Details: compound 10.0 µM
OBSERVATION_TYPE: kinase still bound, per cent of control (%)
Give the value, in units of %, as a plain number.

Could you share which kinase still bound, per cent of control value was measured for "CCCS(=O)(=O)Nc1ccc(F)c(C(=O)c2c[nH]c3ncc(Cl)cc23)c1F" ?
53

Try this compound next: "N#C/C(=C1/Nc2ccccc2S1)c1ccnc(NCCc2cccnc2)n1"
100

Try this compound next: "CCOc1cc(N2CCC(O)CC2)ccc1Nc1ncc2c(n1)N(C)c1ccccc1C(=O)N2C"
100

Try this compound next: "CC(=O)c1c(C)c2cnc(Nc3ccc(N4CCNCC4)cn3)nc2n(C2CCCC2)c1=O"
65

Try this compound next: "CCN(CCO)CCCOc1ccc2c(Nc3cc(CC(=O)Nc4cccc(F)c4)[nH]n3)ncnc2c1"
100

Try this compound next: CC1=C(C(=O)Nc2cc3cn[nH]c3cc2F)C(c2ccc(C(F)(F)F)cc2)CC(=O)N1 (centres undefined)
84

Try this compound next: "CCN1CCN(Cc2ccc(NC(=O)c3ccc(C)c(/C=C/c4cnc5[nH]ccc5c4OC)c3)cc2C(F)(F)F)CC1"
0.15

Try this compound next: "Cc1cn(-c2cc(C(=O)Nc3ccc(C)c(NC(=O)c4ccno4)c3)cc(C(F)(F)F)c2)cn1"
100

Try this compound next: "COc1cc2c(Nc3ccc(NC(=O)c4ccccc4)cc3)ncnc2cc1OCCCN1CCOCC1"
100

###

Biological target: UniProt:P48730
Sequence (P48730 whole entry, looked up): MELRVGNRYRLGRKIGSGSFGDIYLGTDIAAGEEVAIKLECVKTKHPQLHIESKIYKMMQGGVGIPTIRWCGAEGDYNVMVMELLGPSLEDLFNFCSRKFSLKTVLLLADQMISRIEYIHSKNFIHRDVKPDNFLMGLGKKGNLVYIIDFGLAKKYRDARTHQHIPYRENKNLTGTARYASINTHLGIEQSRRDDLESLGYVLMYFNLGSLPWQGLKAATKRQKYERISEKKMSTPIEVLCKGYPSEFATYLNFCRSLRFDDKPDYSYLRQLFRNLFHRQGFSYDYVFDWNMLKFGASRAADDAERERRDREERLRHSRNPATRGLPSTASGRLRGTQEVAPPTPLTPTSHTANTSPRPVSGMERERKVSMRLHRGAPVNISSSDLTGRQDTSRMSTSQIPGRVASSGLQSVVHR
Test: KINOMEscan competition binding
Conditions: compound 10.0 µM
OBSERVATION_TYPE: kinase still bound, per cent of control (%)
Give the value, in units of %, as a plain number.

Could you share which kinase still bound, per cent of control value was measured for "COc1ccc(N(C(=O)Oc2cc(C(=O)Nc3cccc(C(F)(F)F)c3)ccc2C)c2ccnc(Nc3ccc(N4CCN(C)CC4)cc3)n2)c(OC)c1" ?
100

Try this compound next: "CCc1nc(-c2cccc(C)c2)c(-c2ccnc(NC(=O)c3ccccc3)c2)s1"
2

Try this compound next: "Cc1cn(-c2cc(C(=O)Nc3ccc(C)c(NC(=O)c4ccno4)c3)cc(C(F)(F)F)c2)cn1"
100

Try this compound next: CC1=C(C(=O)Nc2cc3cn[nH]c3cc2F)C(c2ccc(C(F)(F)F)cc2)CC(=O)N1 (centres undefined)
92

Try this compound next: "C=CC(=O)Nc1ccc(C(=O)c2sc(Nc3ccc(N4CCN(C)CC4)cc3OC)nc2N)cc1"
72

Try this compound next: "COc1cc(N2CCC(C(N)=O)CC2)ccc1Nc1nc(N)c(Cl)c(Nc2ccccc2S(=O)(=O)C(C)C)n1"
100

Try this compound next: "COc1cc2c(Nc3ccc(NC(=O)c4ccccc4)cc3)ncnc2cc1OCCCN1CCOCC1"
71

Try this compound next: "CCOc1cc(N2CCC(O)CC2)ccc1Nc1ncc2c(n1)N(C)c1ccccc1C(=O)N2C"
100

Try this compound next: "COc1cc2ncnc(Nc3cccc(Cl)c3)c2cc1OC"
54
